# study_system: Kir1.1 (ROMK1) (Homo sapiens (Human))
# protocol_summary: Electrophysiology Assay (whole cell voltage clamp, IonWorks Quattro)
# Assay type: cell-based
# cond: Electrophysiology IC50, Chinese hamster ovary cells stably expressing Kir1.1; block during voltage step to 0 mV
# Procedure: Chinese hamster ovary cells stably expressing Kir1.1 channels were maintained in T-75 flasks in cell culture media in a humidified 10% CO2 incubator at 37° C. Prior to an experiment, Kir1.1 expression was induced by overnight incubation with 1 mM sodium butyrate. […] After centrifugation, the cell pellet was resuspended in approximately 4.0 mL of bath solution and placed in the IonWorks instrument. […] Current amplitudes were measured using the IonWorks software.
Each item that follows carries a reported pIC50.
Reminder that pIC50 means the negative base-10 logarithm of the concentration expressed in mol/L.

These recorded examples may help you get a feel for the data.
Request: Dear colleague, I am looking for the recorded pIC50 of the following compound: "Cc1c([C@@H]2CN3CCN(C(=O)Cc4c(F)cc(-n5cnnn5)cc4F)C[C@H]3CN2)ccc(F)c1C#N"
Response: 6.80

Request: Record request: pIC50 value, item "Cc1c([C@@H]2CN3CCN(C(=O)Cc4cc(F)c(-n5cnnn5)cc4F)C[C@@H]3CO2)ccc(F)c1C#N"
Response: 7.00

Request: Endpoint output: pIC50 of Cc1c(C2CN3CCCN(C(=O)Cc4ccc(-n5cnnn5)cc4)CC3CO2)ccc2c1COC2=O (stereo not shown) . Value?
Response: 6.74

Request: Please report the recorded pIC50 for "Cc1c([C@@H]2CN3CCN(C(=O)Cc4ccc(-n5cnnn5)cc4C#N)C[C@H]3CO2)ccc(F)c1C#N" .
Response: 6.77

Request: Query: pIC50; subject: "Cc1c([C@H]2CN3CCN(C(=O)Cc4ccc(-n5cnnn5)cc4)C[C@@H]3CO2)ccc2c1COC2=O"
Response: 6.85

Request: Would you mind telling me what pIC50 value was observed for "Cc1c([C@H]2CN3CCN(C(=O)Cc4ccc5c(c4)COC5=O)C[C@H]3CO2)ccc(F)c1C#N" ?
Response: 7.15

Others:
Request: Find the recorded pIC50 belonging to "Cc1c([C@@H]2CN3CCN(C(=O)Cc4ccc(-n5cnnn5)cc4)C[C@@H]3CO2)ccc2c1COC2=O" and report it.
Response: 6.82

---

# study_system: Kir1.1 (ROMK1) (Homo sapiens (Human), UniProt P48048)
# Sequence (P48048 whole entry): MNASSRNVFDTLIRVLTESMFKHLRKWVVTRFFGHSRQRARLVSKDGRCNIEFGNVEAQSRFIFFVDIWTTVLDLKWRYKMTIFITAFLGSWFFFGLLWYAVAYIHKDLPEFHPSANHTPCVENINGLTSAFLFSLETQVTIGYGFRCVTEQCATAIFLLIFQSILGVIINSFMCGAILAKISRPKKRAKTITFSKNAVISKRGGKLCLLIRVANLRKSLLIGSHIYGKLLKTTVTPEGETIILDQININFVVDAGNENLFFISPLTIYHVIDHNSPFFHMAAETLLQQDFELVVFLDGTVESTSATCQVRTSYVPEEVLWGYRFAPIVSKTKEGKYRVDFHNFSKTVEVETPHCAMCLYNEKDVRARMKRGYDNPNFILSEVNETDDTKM
# protocol_summary: Electrophysiology Assay (whole cell voltage clamp, IonWorks Quattro)
# Format: cell-based
# cond: Chinese hamster ovary cells stably expressing Kir1.1; block during voltage step to 0 mV; read-out: Electrophysiology IC50
readout: IC50 (nM)
Reply numerically in nM, unit not repeated.

Field: example entries. Status: answers known.
Request: Query (compound): "Cc1c([C@@H]2CN3CCN(C(=O)Cc4c(F)cc(-n5cnnn5)cc4F)C[C@@H]3CO2)ccc2c1COC2=O" ; field requested: IC50
Response: 190

Request: Which IC50 reading was recorded for the compound COc1ccc([C@H]2CN3CCN(C(=O)C4CCc5cc(-n6cnnn6)ccc54)C[C@H]3CO2)c(C)c1C#N (some centres unmarked) ?
Response: 650

Request: # get_value(readout='IC50', item= "Cc1c(C#N)cccc1[C@H]1CN2CCN(C(=O)Cc3ccc(-n4cnnn4)cc3)C[C@H]2CO1" )
Response: 170

Request: Look up IC50 for this compound: "Cc1c([C@@H]2CN3CCN(C(=O)Cc4cccc(-n5cnnn5)c4)C[C@H]3CO2)ccc(F)c1C#N"
Response: 90

Then there is this compound:
Request: If you can, please state the reported IC50 value of "COc1cc(CC(=O)N2CCN3C[C@H](c4ccc5c(c4)COC5=O)OC[C@@H]3C2)c(F)cc1C#N" .
Response: 140
